# TARGET_OF_ASSAY: DNA-PK (Homo sapiens (Human), UniProt P78527)
# METHOD_SUMMARY: DNA-PK assay (biochemical), flashplate 33P-ATP kinase assay
# ASSAY_CONDITIONS: Table 5
pIC50: −log10 of the molar value.
RECORDED_METRIC: pIC50

The cases that follow already have their pIC50 on record.
CC(O)(c1cccc(-c2ncnc3cc(N4CCOCC4)ccc23)c1)c1nccs1 (stereo not shown) [Example 154] ... < 7.52
COC(c1ccc(F)c(-c2ncnc3cc(N4CCOCC4)ccc23)c1)c1nccs1 (stereo not shown) [Example 175] ... < 7.52
OC(c1cc(F)c(F)c(-c2ncnc3cc(N4CCOCC4)ccc23)c1)c1nccs1 (stereo not shown) [Example 179] ... 8.15 to 8.52

Here is the next item to consider.
INPUT: Provide pIC50 value for the following compound: OCc1csc(C(O)c2cc(-c3ncnc4cc(N5CCOCC5)ncc34)c(F)cc2Cl)n1 (stereo not shown) [Example 141]
OUTPUT: < 7.52

----------
Attribute: pKi
# TARGET_OF_ASSAY: Kv11.1 (hERG) (Homo sapiens (Human))
# Sequence (Q12809 whole entry): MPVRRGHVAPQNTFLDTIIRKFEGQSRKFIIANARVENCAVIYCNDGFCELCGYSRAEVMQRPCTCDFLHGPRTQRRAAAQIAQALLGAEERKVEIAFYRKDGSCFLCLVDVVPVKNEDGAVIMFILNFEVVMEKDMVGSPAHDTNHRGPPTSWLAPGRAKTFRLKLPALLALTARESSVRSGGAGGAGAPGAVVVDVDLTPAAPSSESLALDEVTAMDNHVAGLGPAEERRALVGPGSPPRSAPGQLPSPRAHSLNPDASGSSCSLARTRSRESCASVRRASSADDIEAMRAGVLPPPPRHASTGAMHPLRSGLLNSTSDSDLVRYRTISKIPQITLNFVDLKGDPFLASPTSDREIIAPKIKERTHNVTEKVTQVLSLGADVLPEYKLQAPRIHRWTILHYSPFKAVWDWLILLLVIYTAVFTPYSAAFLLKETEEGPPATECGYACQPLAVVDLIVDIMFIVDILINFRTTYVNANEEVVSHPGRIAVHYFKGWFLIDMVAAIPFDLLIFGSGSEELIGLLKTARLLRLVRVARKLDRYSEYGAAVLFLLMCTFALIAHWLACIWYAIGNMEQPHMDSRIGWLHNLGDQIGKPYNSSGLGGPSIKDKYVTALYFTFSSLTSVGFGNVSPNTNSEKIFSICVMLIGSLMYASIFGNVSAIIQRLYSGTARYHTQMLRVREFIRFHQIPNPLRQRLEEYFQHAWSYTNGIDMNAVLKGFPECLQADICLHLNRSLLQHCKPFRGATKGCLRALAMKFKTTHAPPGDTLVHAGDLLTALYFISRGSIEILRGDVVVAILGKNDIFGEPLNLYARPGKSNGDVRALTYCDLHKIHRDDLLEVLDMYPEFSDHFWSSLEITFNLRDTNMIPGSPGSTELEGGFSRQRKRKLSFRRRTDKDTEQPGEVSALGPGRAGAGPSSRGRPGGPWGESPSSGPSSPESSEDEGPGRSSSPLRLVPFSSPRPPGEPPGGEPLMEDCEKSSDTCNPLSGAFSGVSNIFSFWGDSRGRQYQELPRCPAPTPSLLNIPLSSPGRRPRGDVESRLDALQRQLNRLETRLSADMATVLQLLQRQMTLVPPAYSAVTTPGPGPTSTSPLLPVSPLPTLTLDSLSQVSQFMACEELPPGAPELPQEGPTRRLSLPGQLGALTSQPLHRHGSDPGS
# METHOD_SUMMARY: Kv11.1 (hERG) ion channel activity (patch clamp assay), HEK293 cells transfected with hERG gene
# ASSAY_CONDITIONS: Ki [Kv1.11 hERG], hERG patch clamp assay (cells without asterisk)
pKi: −log10 of the molar value.

The cases that follow already have their pKi on record.
COc1cncnc1C(O)c1cc(-c2ncnc3cc(N4CCOCC4)ccc23)ccc1Cl (stereo not drawn) [Example 413] ... 4.60 to 4.82
Cn1c(C(O)c2cc(-c3ncnc4cc(N5CCOCC5)ccc34)ccc2Cl)cccc1=O (single isomer, unassigned) [Example 363] ... 4.60 to 4.82
NC(=O)C(c1cc(-c2ncnc3cc(N4CCOCC4)ccc23)ccc1Cl)c1nccnc1Cl (stereo not drawn) [Example 315] ... 4.82 to 5.00
[2H]C1([2H])OC([2H])([2H])C([2H])([2H])N(c2ccc3c(-c4cc(C(O)c5ccc(OC)nn5)c(Cl)cc4F)ncnc3c2)C1([2H])[2H] (single isomer, unassigned) [Example 239] ... 4.60 to 4.82
OC(c1cc(-c2ncnc3cc(N4CCOCC4)ccc23)ccc1F)c1ncnc2ccoc12 (stereo not drawn) [Example 374] ... 4.60 to 4.82
OC(c1cccnn1)c1cc(-c2ncnc3cc(N4CCOCC4)ccc23)ccc1Cl (stereo not drawn) [Example 479] ... 4.60 to 4.82
Cc1nccnc1C(O)c1ccc(F)c(-c2ncnc3cc(N4CCOCC4)cnc23)c1 (stereo not drawn) [Example 237] ... 4.82 to 5.00
OC(c1cc(-c2ncnc3cc(N4CCOCC4)ccc23)ccc1Cl)c1nccn2ccnc12 (stereo not drawn) [Example 369] ... 4.60 to 4.82

INPUT: Provide pKi value for the following compound: COc1ccc(C(O)c2cc(-c3ncnc4cc(N5CCOCC5)ccc34)ccc2Cl)nn1 (stereo not drawn) [Example 458]
OUTPUT: 4.82 to 5.00

INPUT: Provide pKi value for the following compound: OC(c1ccc(F)c(-c2ncnc3cc(N4CCOCC4)ccc23)c1)c1ncnc2ccsc12 (stereo not drawn) [Example 438]
OUTPUT: 4.82 to 5.00

INPUT: Provide pKi value for the following compound: Cc1nccnc1C(O)c1cc(-c2ncnc3cc(N4CCOCC4)ccc23)ccc1Cl (stereo not drawn) [Example 428]
OUTPUT: 4.82 to 5.00

INPUT: Provide pKi value for the following compound: [2H]C1([2H])OC([2H])([2H])C([2H])([2H])N(c2ccc3c(-c4cc(C(O)c5nccnc5C)ccc4F)ncnc3c2)C1([2H])[2H] (stereo not drawn) [Example 238]
OUTPUT: 4.60 to 4.82

INPUT: Provide pKi value for the following compound: COc1cncnc1C(O)c1cc(-c2ncnc3cc(N4CCOCC4)ccc23)c(F)cc1F (stereo not drawn) [Example 448]
OUTPUT: 4.82 to 5.00

INPUT: Provide pKi value for the following compound: [2H]C1([2H])OC([2H])([2H])C([2H])([2H])N(c2ccc3c(-c4cc(C(O)c5nccnc5OC)c(Cl)cc4F)ncnc3c2)C1([2H])[2H] (stereo not drawn) [Example 242]
OUTPUT: 4.60 to 4.82

INPUT: Provide pKi value for the following compound: OC(c1ccc(F)c(-c2ncnc3cc(N4CCOCC4)ccc23)c1)c1ncccc1OC(F)(F)F (stereo not drawn) [Example 475]
OUTPUT: 4.60 to 4.82
